molecular target: Recombinant human LTC4 synthase (Homo sapiens, UniProt Q16873); construct: made in house; host or cells: Pichia pastoris; assay: In vitro LTC4 synthase assay (LTA4 to LTC4, HTRF detection); format: biochemical; details: Table 4, title compounds of Example 4
test_readout: pIC50
Notebook: values listed as pIC50 are -log10 of the concentration (mol/L).

# compound, target_or_test_system, pIC50
rows = [
    ("CN(c1ccc(Cl)cc1)c1ccc(C(=O)c2cc(Sc3cccc(OC(F)(F)F)c3)cc(C(=O)O)c2)cc1 [4:8]", "Recombinant human LTC4 synthase (Homo sapiens, UniProt Q16873)", 6.83),
    ("CN(c1ccc(Cl)cc1)c1ccc(C(=O)c2cc(Sc3ccccc3)cc(C(=O)O)c2)nc1 [4:4]", "Recombinant human LTC4 synthase (Homo sapiens, UniProt Q16873)", 6.87),
    ("COc1ccc(Sc2cc(C(=O)O)cc(C(=O)c3ccc(N(C)c4ccc(Cl)cc4)cc3)c2)cc1OC [4:7]", "Recombinant human LTC4 synthase (Homo sapiens, UniProt Q16873)", 6.48),
    ("CCCCCCSc1cc(C(=O)O)cc(C(=O)c2ccc(N(C)c3ccc(Cl)cc3)cn2)c1 [4:3]", "Recombinant human LTC4 synthase (Homo sapiens, UniProt Q16873)", 6.67),
    ("COc1cccc(Sc2cc(C(=O)O)cc(C(=O)c3ccc(N(C)c4ccc(Cl)cc4)cc3)c2)c1 [4:5]", "Recombinant human LTC4 synthase (Homo sapiens, UniProt Q16873)", 6.84),
    ("CCCCCC[S+]([O-])c1cc(C(=O)O)cc(C(=O)c2ccc(N(C)c3ccc(Cl)cc3)cn2)c1 (stereo not drawn) [Example 4:2]", "Recombinant human LTC4 synthase (Homo sapiens, UniProt Q16873)", 6.39),
    ("CN(c1ccc(Cl)cc1)c1ccc(C(=O)c2cc(Sc3ccc(F)c(F)c3)cc(C(=O)O)c2)cc1 [4:9]", "Recombinant human LTC4 synthase (Homo sapiens, UniProt Q16873)", 7.06),
    ("CN(c1ccc(Cl)cc1)c1ccc(C(=O)c2cc(Sc3cccc(Cl)c3)cc(C(=O)O)c2)cc1 [4:6]", "Recombinant human LTC4 synthase (Homo sapiens, UniProt Q16873)", 6.78),
]

Please find the next compound below.
Looking for the measured pIC50 of CN(c1ccc(Cl)cc1)c1ccc(C(=O)c2cc(Sc3ccccc3)cc(C(=O)O)c2)cc1 [4:10] , can you help?
6.76

###

Biological target: Recombinant human LTC4 synthase (Homo sapiens)
Construct: made in house; host or cells: Pichia pastoris
Sequence (Q16873 1-150): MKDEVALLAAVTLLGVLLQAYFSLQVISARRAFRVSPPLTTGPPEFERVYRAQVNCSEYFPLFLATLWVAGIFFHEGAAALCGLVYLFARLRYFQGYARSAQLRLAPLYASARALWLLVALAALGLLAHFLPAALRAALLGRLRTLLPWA
Experiment: In vitro LTC4 synthase assay (LTA4 to LTC4, HTRF detection)
Assay type: biochemical
Details: title compounds of the Examples
pIC50: −log10 of the molar value.
# binarize pIC50: threshold 7 inclusive, high side fulfilled, low side not fulfilled

# compound, label_class
measured = [
    ("O=C(c1ccc([S+]([O-])c2cccc(Cl)c2)c(C(=O)O)c1)c1ccc(N(CC2CC2)c2ccc(Cl)cc2)cn1 (stereo not drawn)", "fulfilled"),
]

Quick check, pIC50 >= 7? COc1ccc(Sc2ccc(C(=O)c3ccc(OCc4cccc(Cl)c4)cn3)cc2C(=O)O)cc1
not fulfilled

Entry COc1ccc(Sc2cc(C(=O)O)cc(C(=O)c3ccc(N(C)c4ccc(Cl)cc4)cc3)c2)cc1OC please
not fulfilled

Same for CN(c1ccc(Cl)cc1)c1ccc(C(=O)c2ccc(S(=O)(=O)c3ccc(Cl)cc3)c(C(=O)O)c2)cc1
not fulfilled

Similarly, O=C(c1ccc(Sc2ccc(F)c(F)c2)c(C(=O)O)c1)c1ccc(N(CC2CC2)c2ccc(Cl)cc2)cn1 ?
fulfilled

###

Target: Recombinant human LTC4 synthase (Homo sapiens, UniProt Q16873)
Construct: made in house; host or cells: Pichia pastoris
Sequence (Q16873 1-150): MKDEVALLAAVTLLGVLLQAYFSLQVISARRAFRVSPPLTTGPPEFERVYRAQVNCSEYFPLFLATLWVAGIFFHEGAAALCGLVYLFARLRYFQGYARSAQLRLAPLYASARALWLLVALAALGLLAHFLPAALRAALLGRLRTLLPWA
Assay: In vitro LTC4 synthase assay (LTA4 to LTC4, HTRF detection)
Format: biochemical
Conditions: title compounds of the Examples
test_readout: pIC50
In simple prose, pIC50 is minus the logarithm base ten of a concentration in moles per litre.

# molecule, test_readout, readout_value
records = [
    ("O=C(c1ccc(Sc2ccc(Cl)cc2)c(C(=O)O)c1)c1ccc(N(CC2CC2)c2ccc(Cl)cc2)cn1", "pIC50", 7.13),
    ("CN(c1ccc(Cl)cc1)c1ccc(C(=O)c2ccc([S+]([O-])c3ccc(Cl)cc3)c(C(=O)O)c2)cc1 (centres unmarked)", "pIC50", 7.18),
    ("CN(c1ccc(Cl)cc1)c1ccc(C(=O)c2ccc([S+]([O-])C3CCCC3)c(C(=O)O)c2)cc1 (centres unmarked)", "pIC50", 6.79),
    ("CN(c1ccc(Cl)cc1)c1ccc(C(=O)c2cc(Sc3cccc(OC(F)(F)F)c3)cc(C(=O)O)c2)cc1", "pIC50", 6.83),
]

Switching to the query record.
Please look up its pIC50: O=C(c1ccc(Sc2ccc(Br)cc2)c(C(=O)O)c1)c1ccc(N(CC2CC2)c2ccc(Cl)cc2)cn1
6.99

###

Target: Recombinant human LTC4 synthase (Homo sapiens)
Construct: made in house; host or cells: Pichia pastoris
Sequence (Q16873 1-150): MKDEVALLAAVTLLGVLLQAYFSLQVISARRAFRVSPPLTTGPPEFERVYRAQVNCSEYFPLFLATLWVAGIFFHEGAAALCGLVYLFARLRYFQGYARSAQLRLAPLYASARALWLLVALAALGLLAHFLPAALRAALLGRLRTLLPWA
Test: In vitro LTC4 synthase assay (LTA4 to LTC4, HTRF detection)
Type: biochemical
Conditions: title compounds of the Examples
Experimental: In the assay, LTC4 synthase catalyses the reaction where the substrate LTA4 is converted to LTC4. Recombinant human LTC4 synthase is expressed in Piccia pastoralis and the purified enzyme is dissolved in 25 mM tris-buffer pH 7.8 supplemented with 0.1 mM glutathione (GSH) and stored at −80° C. The assay is performed in phosphate buffered saline (PBS) pH 7.4 and 5 mM GSH in 384-well plates. […] 1. […] 10 μL of the incubation mixture is analysed using homogenous time resolved fluorescent (HTRF) detection.
Please assign -1 whenever IC50 is at or above 0.1 µM, and 1 whenever it is below.

Recorded results for 6 compounds are shown here.
# compound, label_class
measured = [
    ("CN(c1ccc(Cl)cc1)c1ccc(C(=O)c2ccc([S+]([O-])C3CCCCC3)c(C(=O)O)c2)cc1 (stereo not shown) [1:5]", -1),
    ("O=C(c1ccc(Sc2ccc(F)c(F)c2)c(C(=O)O)c1)c1ccc(OCc2cccc(Cl)c2)cn1 [Example 2:21]", -1),
    ("O=C(c1ccc(Sc2cccc(C(F)(F)F)c2)c(C(=O)O)c1)c1ccc(N(CC2CC2)c2ccc(Cl)cc2)cn1 [2:12]", 1),
    ("CN(c1ccc(Cl)cc1)c1ccc(C(=O)c2ccc([S+]([O-])CC34CCC(CC3O)C4(C)C)c(C(=O)O)c2)cc1 (stereo not shown) [1:10]", 1),
    ("CCCCCCSc1ccc(C(=O)c2ccc(N(CC3CC3)c3ccc(Cl)cc3)cn2)cc1C(=O)O [2:15]", 1),
    ("O=C(c1ccc([S+]([O-])c2cccc(C(F)(F)F)c2)c(C(=O)O)c1)c1ccc(N(CC2CC2)c2ccc(Cl)cc2)cn1 (stereo not shown) [1:15]", 1),
]

I'd appreciate it if you could check whether CN(c1ccc(Cl)cc1)c1ccc(C(=O)c2ccc([S+]([O-])c3ccc(F)c(F)c3)c(C(=O)O)c2)cc1 (stereo not shown) [1:3] has IC50 smaller than 0.1 µM.
-1

Let us now turn to COc1cccc(Sc2cc(C(=O)O)cc(C(=O)c3ccc(N(C)c4ccc(Cl)cc4)cc3)c2)c1 [2:25]
-1

Same for CN(c1ccc(Cl)cc1)c1ccc(C(=O)c2ccc(Sc3ccc(F)c(F)c3)c(C(=O)O)c2)cc1 [2:3]
1

Please do the same for CN(c1ccc(Cl)cc1)c1ccc(C(=O)c2ccc(SCC34CCC(CC3O)C4(C)C)c(C(=O)O)c2)cc1 (stereo not shown) [2:4] as well.
-1

Repeat for the following compound: CCCCCCSc1cc(C(=O)O)cc(C(=O)c2ccc(N(C)c3ccc(Cl)cc3)cn2)c1 [2:23]
-1

Now consider O=C(c1ccc([S+]([O-])c2ccc(Br)cc2)c(C(=O)O)c1)c1ccc(N(CC2CC2)c2ccc(Cl)cc2)cn1 (stereo not shown) [1:17] .
1

Same for O=C(c1ccc(N(CC2CC2)c2ccc(Cl)cc2)cc1)c1ccc([S+]([O-])c2ccccc2)c(C(=O)O)c1 (stereo not shown) [Example 1:11]
1

What do we get for O=C(c1ccc(Sc2ccc(C(F)(F)F)cc2)c(C(=O)O)c1)c1ccc(N(CC2CC2)c2ccc(Cl)cc2)cn1 [2:13] ?
-1

Follow-up entry: CN(c1ccc(Cl)cc1)c1ccc(C(=O)c2ccc([S+]([O-])c3ccc(F)c(F)c3)c(C(=O)O)c2)nc1 (stereo not shown) [Example 1:13]
1

Same again, this time with CN(c1ccc(Cl)cc1)c1ccc(C(=O)c2ccc([S+]([O-])C34CC5CC(CC(C5)C3)C4)c(C(=O)O)c2)cc1 (stereo not shown) [1:6]
1

Next compound: CN(c1ccc(Cl)cc1)c1ccc(C(=O)c2cc(Sc3ccccc3)cc(C(=O)O)c2)nc1 [2:24]
-1

Item: O=C(c1ccc(Sc2ccc(F)cc2)c(C(=O)O)c1)c1ccc(N(CC2CC2)c2ccc(Cl)cc2)cn1 [2:11]
1

Entry CCCCCC[S+]([O-])c1cc(C(=O)O)cc(C(=O)c2ccc(N(C)c3ccc(Cl)cc3)cn2)c1 (stereo not shown) [Example 1:20] please
-1
